experimental-system: T1, GapR (Caulobacter crescentus, UniProt B8H4R9 1-89)
T1 sequence: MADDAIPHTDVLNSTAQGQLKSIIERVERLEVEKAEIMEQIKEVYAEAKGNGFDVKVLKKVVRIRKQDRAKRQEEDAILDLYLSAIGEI
assay: ITC; ITC: 50 mM sodium phosphate pH 7.0, 200 mM NaCl, 4 C; 25 uM GapR tetramer in cell, 0.25 mM DNA injected; NMR: 0.1 mM tetramer, 0.02-0.1 mM DNA
run-parameters: protein: recombinant; tags: C-terminal His6 (pET-21a); chain copies: 4; blunt, self-complementary
parameter: Kd (nM)
Report the figure in nM without appending any unit label.

Supply Kd value. Item: 6CpG (dsDNA) DNA 1: CGCGCGCGCGCG DNA 2: CGCGCGCGCGCG
118
